Reference source for all entries: patent US20230287125A1

biological target: T1, human PD-L1-his tag protein (human, UniProt Q9NZQ7 19-238); test: SPR (Biacore), affinity ranking, PDL1-His
T1 construct: also called human PD-L1-His protein; recombinant PD-L1 protein; not shown: his tag
T1 sequence (Q9NZQ7 19-238 limits assumed): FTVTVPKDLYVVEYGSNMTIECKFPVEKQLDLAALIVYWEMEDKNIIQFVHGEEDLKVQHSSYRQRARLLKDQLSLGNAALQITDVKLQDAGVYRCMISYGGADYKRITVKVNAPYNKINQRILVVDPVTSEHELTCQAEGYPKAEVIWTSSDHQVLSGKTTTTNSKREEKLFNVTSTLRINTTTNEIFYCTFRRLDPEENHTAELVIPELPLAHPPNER
// reported kon for each item listed
Kindly provide the numeric value in M⁻¹ s⁻¹ only, without the unit symbol.

# count of solved cases: 5
Hu89C10H8-3 (antibody, V domains shown, humanized) VH: EVQLVESGGGLVKPGGSLRLSCAASGFTFSNYWMTWIRQAPGKGLEWVASITNTGSSTFYPDSVKGRFTISRDNAKNSLYLQMNSLRAEDTAVYYCTRDTTIAPFDYWGQGTMVTVSS VL: DIQMTQSPSSLSASVGDRVTITCKASQNLNEYLNWYQQKPGKAPKRLIYKTNTLQAGVPSRFSGSGSGTDYTLTISSLQPEDFATYYCSQYNSGNTFGQGTKLEIK    738000
Hu89C10H8-16 (antibody, V domains shown, humanized) VH: EVQLVESGGGLVKPGGSLRLSCAASGFTFSNYWMTWIRQAPGKGLEWVASITNTGSSTFYPDSVKGRFTISRDNAKSSLYLQMNSLRAEDTAVYYCTRDTTIAPFDYWGQGTMVTVSS VL: DIQMTQSPSSLSASVGDRVTITCKASQNLNEYLNWYQQKLGEAPKRLIYKTNTLQAGIPSRFSGSGSGIDYTLTISSLQPEDFATYFCSQYNSGNTFGQGTKLEIK    667000
Hu67F3G7-19 (antibody, V domains shown, humanized) VH: EVQLVQSGAEVKKPGASVKVSCKASGYIFTDFWVSWVRQAPGQGLEWIGEIYPNSGVSRYNEKFKGRVTMTVDKSISTAYMELSRLRSDDTAVYYCARYFGYTYWFGYWGQGTLVTVSS VL: DTVLTQSPSLSASVGDRVTITCRASKSVSTYMHWYQQKPGKQPKLLIYSASHLESGVPSRFSGSGSGTDFTLTISSLQPEDFATYYCQQSNELPVTFGGGTKVEIK    1.97e+06
Hu67F3G7-17 (antibody, V domains shown, humanized) VH: EVQLVQSGAEVKKPGASVKVSCKASGYTFTDFWVSWVRQAPGQGLEWMGEIYPNSGVSRYNEKFKGRVTMTVDKSISTAYMELSRLRSDDTAVYYCTKYFGYTYWFGYWGQGTLVTVSS VL: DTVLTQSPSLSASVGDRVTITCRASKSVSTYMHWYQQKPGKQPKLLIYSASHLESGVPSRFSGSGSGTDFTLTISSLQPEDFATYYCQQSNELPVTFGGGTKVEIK    2.74e+06
Hu67F3G7-22 (antibody, V domains shown, humanized) VH: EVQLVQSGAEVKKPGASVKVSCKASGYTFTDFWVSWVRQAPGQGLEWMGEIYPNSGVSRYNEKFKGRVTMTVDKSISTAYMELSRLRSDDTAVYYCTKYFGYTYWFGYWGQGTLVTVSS VL: DIQMTQSPSSLSASVGDRVTITCRASKSVSTYMHWYQQKPGKQPKLLIYSASHLESGVPSRFSGSGSGTDFTLTISSLQPEDFATYYCQQSNELPVTFGGGTKVEIK    1.67e+06

The binder listed as Hu67F3G7-9 (antibody, V domains shown, humanized) VH: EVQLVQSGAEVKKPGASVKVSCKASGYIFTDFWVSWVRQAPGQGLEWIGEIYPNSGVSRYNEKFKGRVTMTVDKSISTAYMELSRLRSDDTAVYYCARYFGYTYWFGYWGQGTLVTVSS VL: DTVLTQSPSSLSASVGDRVTITCRASKSVSTYMHWYQQKPGKAPKLLIYSASHLESGVPSRFSGSGSGTDFTLTISSLQPEDFATYYCQQSNELPVTFGGGTKVEIK has a reported kon of 2.21e+06

Item: Hu89C10H8-4 (antibody, V domains shown, humanized) VH: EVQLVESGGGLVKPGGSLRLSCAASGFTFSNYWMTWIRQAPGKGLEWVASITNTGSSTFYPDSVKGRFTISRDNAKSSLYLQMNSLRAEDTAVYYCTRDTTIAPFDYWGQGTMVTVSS VL: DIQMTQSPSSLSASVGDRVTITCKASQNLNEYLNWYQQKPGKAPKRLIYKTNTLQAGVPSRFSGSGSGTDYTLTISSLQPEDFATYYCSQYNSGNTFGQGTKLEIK | kon: 623000

Note to self: kon recorded for Hu67F3G7-16 (antibody, V domains shown, humanized) VH: EVQLVQSGAEVKKPGASVKVSCKASGYTFTDFWVSWVRQAPGQGLEWMGEIYPNSGVSRYNEKFKGRVTMTVDKSISTAYMELSRLRSDDTAVYYCARYFGYTYWFGYWGQGTLVTVSS VL: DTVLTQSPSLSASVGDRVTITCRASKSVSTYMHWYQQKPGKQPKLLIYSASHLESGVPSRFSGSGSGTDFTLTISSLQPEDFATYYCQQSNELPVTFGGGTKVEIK was 1.48e+06

The value of kon measured for the binder Hu67F3G7-21 (antibody, V domains shown, humanized) VH: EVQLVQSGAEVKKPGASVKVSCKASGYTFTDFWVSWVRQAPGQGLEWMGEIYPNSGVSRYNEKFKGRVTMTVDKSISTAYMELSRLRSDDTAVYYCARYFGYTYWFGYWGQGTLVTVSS VL: DIQMTQSPSSLSASVGDRVTITCRASKSVSTYMHWYQQKPGKQPKLLIYSASHLESGVPSRFSGSGSGTDFTLTISSLQPEDFATYYCQQSNELPVTFGGGTKVEIK turned out to be 540000

Recorded kon (binder Hu67F3G7-2 (antibody, V domains shown, humanized) VH: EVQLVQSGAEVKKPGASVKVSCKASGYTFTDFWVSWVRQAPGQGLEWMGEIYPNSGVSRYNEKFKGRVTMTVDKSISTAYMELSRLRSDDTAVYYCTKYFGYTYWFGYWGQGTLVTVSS VL: DIQMTQSPSSLSASVGDRVTITCRASKSVSTYMHWYQQKPGKAPKLLIYSASHLESGVPSRFSGSGSGTDFTLTISSLQPEDFATYYCQQSNELPVTFGGGTKVEIK ): 2.57e+06
